# system.under.test: Adenosine receptor A2a (Homo sapiens)
# Sequence (P29274 whole entry): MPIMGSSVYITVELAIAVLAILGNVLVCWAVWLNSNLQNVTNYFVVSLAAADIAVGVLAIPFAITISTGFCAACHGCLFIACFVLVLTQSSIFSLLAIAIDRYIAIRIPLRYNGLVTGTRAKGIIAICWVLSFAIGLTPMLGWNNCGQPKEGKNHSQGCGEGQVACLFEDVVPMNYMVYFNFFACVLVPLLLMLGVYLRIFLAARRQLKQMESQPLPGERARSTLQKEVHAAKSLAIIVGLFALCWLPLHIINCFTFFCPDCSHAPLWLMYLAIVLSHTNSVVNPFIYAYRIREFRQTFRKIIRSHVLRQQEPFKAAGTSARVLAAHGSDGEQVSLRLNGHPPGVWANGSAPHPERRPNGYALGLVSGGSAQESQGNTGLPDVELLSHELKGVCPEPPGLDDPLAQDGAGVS
# assay.summary: Agonist activity at human adenosine A2A receptor expressed in FlpIn-CHO cells assessed as inhibition of forskolin-induced cAMP accumulation after 30 mins by fluorescence assay
pEC50: −log10 of the molar value.
value.kind: pEC50

a = CNC(=O)[C@H]1O[C@@H](n2cnc3c(NCc4cccc(I)c4)nc(N)nc32)[C@H](O)[C@@H]1O
b = CNC(=O)[C@H]1O[C@@H](n2cnc3c(NC4CCCC4)nc(N(C)C)nc32)[C@H](O)[C@@H]1O
-- ask Select one: a or b . Criterion: greater recorded pEC50. Please identify the chosen entry by its label.
-- reply a
(a: 6.60, b: 5.30)

====

# system.under.test: UniProt:P29275
# Sequence (P29275 whole entry): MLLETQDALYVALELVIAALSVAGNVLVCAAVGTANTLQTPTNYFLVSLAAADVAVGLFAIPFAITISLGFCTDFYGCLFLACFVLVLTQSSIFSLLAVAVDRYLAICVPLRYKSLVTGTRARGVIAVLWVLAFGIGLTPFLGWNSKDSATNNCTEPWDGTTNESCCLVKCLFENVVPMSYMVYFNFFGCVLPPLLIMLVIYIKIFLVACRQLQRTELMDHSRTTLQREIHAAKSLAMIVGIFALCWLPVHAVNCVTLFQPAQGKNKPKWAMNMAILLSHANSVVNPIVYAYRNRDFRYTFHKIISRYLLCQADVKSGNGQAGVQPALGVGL
# assay.summary: Agonist activity at human adenosine A2B receptor expressed in FlpIn-CHO cells assessed as inhibition of forskolin-induced cAMP accumulation after 30 mins by fluorescence assay
pEC50: −log10 of the molar value.
value.kind: pEC50

molecule	value.kind	observed.result
CNC(=O)[C@H]1O[C@@H](n2cnc3c(NCc4cccc(Cl)c4)nc(N)nc32)[C@H](O)[C@@H]1O	pEC50	6.40

P = CNC(=O)[C@H]1O[C@@H](n2cnc3c(NCCc4ccccc4)nc(N)nc32)[C@H](O)[C@@H]1O
Q = CNC(=O)[C@H]1O[C@@H](n2cnc3c(NC4CCCC4)nc(N)nc32)[C@H](O)[C@@H]1O
-- ask Select one: P or Q . Criterion: greater recorded pEC50. Please identify the chosen entry by its label.
-- reply P

a = CNC(=O)[C@H]1O[C@@H](n2cnc3c(NCc4cccc(I)c4)ncnc32)[C@H](O)[C@@H]1O [IB-MECA]
b = CCCCNc1nc(N)nc2c1ncn2[C@@H]1O[C@H](C(=O)NC)[C@@H](O)[C@H]1O
-- ask Select one: a or b . Criterion: greater recorded pEC50. Please identify the chosen entry by its label.
-- reply a
(a: 7.50, b: 5.90)

I = CNC(=O)[C@H]1O[C@@H](n2cnc3c(NC4CCCCC4)nc(N)nc32)[C@H](O)[C@@H]1O
II = CNC(=O)[C@H]1O[C@@H](n2cnc3c(NCc4ccccc4)nc(N)nc32)[C@H](O)[C@@H]1O
III = CNC(=O)[C@H]1O[C@@H](n2cnc3c(NC)nc(N)nc32)[C@H](O)[C@@H]1O
-- ask Ascending by pEC50, please: list the molecules accordingly. Reply: labels, ordered per the request.
-- reply I, III, II
(I: 5.60, III: 5.80, II: 6.90)

====

# system.under.test: Adenosine receptors; A1 & A3 (Homo sapiens) (UniProt P30542+P0DMS8)
# Sequence (P0DMS8 whole entry, looked up): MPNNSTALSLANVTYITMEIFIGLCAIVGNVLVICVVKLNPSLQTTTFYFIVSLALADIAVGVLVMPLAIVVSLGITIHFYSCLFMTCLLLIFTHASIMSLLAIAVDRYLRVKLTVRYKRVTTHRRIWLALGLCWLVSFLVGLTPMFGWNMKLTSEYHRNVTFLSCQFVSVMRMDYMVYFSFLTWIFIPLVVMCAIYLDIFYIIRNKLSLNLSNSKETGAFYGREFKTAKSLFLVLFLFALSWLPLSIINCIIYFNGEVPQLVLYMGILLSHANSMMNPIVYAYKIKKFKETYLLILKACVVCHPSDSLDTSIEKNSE
# Sequence (P30542 whole entry, looked up): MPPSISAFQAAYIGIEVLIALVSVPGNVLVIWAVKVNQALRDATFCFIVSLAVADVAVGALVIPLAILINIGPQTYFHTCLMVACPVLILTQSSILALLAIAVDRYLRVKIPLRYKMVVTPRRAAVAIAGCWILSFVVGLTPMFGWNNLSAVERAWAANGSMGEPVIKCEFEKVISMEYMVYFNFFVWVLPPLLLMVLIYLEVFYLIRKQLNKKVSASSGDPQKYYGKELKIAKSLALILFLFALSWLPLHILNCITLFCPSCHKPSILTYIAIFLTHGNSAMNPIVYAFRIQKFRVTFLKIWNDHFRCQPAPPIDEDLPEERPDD
# assay.summary: Selectivity ratio; ratio of pEC50 for human adenosine A1 receptor to pEC50 for human adenosine A3 receptor
value.kind: Selectivity ratio

CNC(=O)[C@H]1O[C@@H](n2cnc3c(NC)nc(N)nc32)[C@H](O)[C@@H]1O 794
CNC(=O)[C@H]1O[C@@H](n2cnc3c(NCc4cccc(Cl)c4)nc(N)nc32)[C@H](O)[C@@H]1O 501
CNC(=O)[C@H]1O[C@@H](n2cnc3c(NCc4ccccc4)nc(N)nc32)[C@H](O)[C@@H]1O 200

a = CCNc1nc(NC2CCCC2)c2ncn([C@@H]3O[C@H](C(=O)NC)[C@@H](O)[C@H]3O)c2n1
b = CNC(=O)[C@H]1O[C@@H](n2cnc3c(NC4CCCC4)nc(NC)nc32)[C@H](O)[C@@H]1O
c = CCCCNc1nc(N)nc2c1ncn2[C@@H]1O[C@H](C(=O)NC)[C@@H](O)[C@H]1O
-- ask Please rank these compounds by Selectivity ratio in descending order. Reply: labels, ordered per the request.
-- reply c, a, b

1 = CCCNc1nc(N)nc2c1ncn2[C@@H]1O[C@H](C(=O)NC)[C@@H](O)[C@H]1O
2 = CNC(=O)[C@H]1O[C@@H](n2cnc3c(NCC(c4ccccc4)c4ccccc4)nc(N)nc32)[C@H](O)[C@@H]1O
3 = CNC(=O)[C@H]1O[C@@H](n2cnc3c(NC4CCC4)nc(N)nc32)[C@H](O)[C@@H]1O
4 = CCNc1nc(N)nc2c1ncn2[C@@H]1O[C@H](C(=O)NC)[C@@H](O)[C@H]1O
-- ask Please rank these compounds by Selectivity ratio in descending order. Reply: labels, ordered per the request.
-- reply 4, 2, 1, 3
(4: 251, 2: 79, 1: 32, 3: 13)
